Catalogue of MIC readings, one per entry.
System: E. coli GC 4560
assay overview: MIC, broth microdilution
condition: Escherichia coli, GC4560, read-out: MINIMAL INHIBITORY CONCENTRATION MIC, Mouse Serum

{"columns": ["compound", "units label", "MIC"],
 "data": [
  ["CCCCOC(=O)N(CC(=O)Nc1cc(N(C)C)c2c(c1O)C(=O)C1=C(O)[C@]3(O)C(=O)C(C(N)=O)=C(O)[C@@H](N(C)C)[C@@H]3C[C@@H]1C2)C(C)(C)C [Example 58]", "µg/mL", 4],
  ["CN(C)c1cc(NC(=O)CN(C(=O)OCOC(=O)C2CCCCC2)C(C)(C)C)c(O)c2c1C[C@H]1C[C@H]3[C@H](N(C)C)C(O)=C(C(N)=O)C(=O)[C@@]3(O)C(O)=C1C2=O [Example 50]", "µg/mL", 0.5],
  ["CC(C)COC(=O)N(CC(=O)Nc1cc(N(C)C)c2c(c1O)C(=O)C1=C(O)[C@]3(O)C(=O)C(C(N)=O)=C(O)[C@@H](N(C)C)[C@@H]3C[C@@H]1C2)C(C)(C)C [Example 59]", "µg/mL", 4],
  ["CC(C)CC(=O)OCOC(=O)N(CC(=O)Nc1cc(N(C)C)c2c(c1O)C(=O)C1=C(O)[C@]3(O)C(=O)C(C(N)=O)=C(O)[C@@H](N(C)C)[C@@H]3C[C@@H]1C2)C(C)(C)C [Example 53]", "µg/mL", 0.5],
  ["COC(=O)N(CC(=O)Nc1cc(N(C)C)c2c(c1O)C(=O)C1=C(O)[C@]3(O)C(=O)C(C(N)=O)=C(O)[C@@H](N(C)C)[C@@H]3C[C@@H]1C2)C(C)(C)C [Example 60]", "µg/mL", 1]
]}
